The reported measurements were obtained from the nanobody polyreactivity screen of Harvey et al. (2022).

- assay: yeast display, Sf9 membrane polyspecificity reagent, FACS + sequencing; frameworks hold sequencing errors
assay_metric: polyreactivity (PSR sort gate)

                                   seq_text              result
0  QVQLVESGGCLVQAGGSLRLSSAASGITFYLYAMGWYRKAPGKVRELVATISRSGGSTYADSVKGRFTISRDNAKNTVYLQMHSMKPEDTAVYYCNADLLSTGFIAYDYWGQGTQVTVSS  low polyreactivity
1  QVQLVESGGGLVQAGGSLRLSCAASGRIFYTNAMGWYRQAPGKESELVAVISWGGDTTYYADSVKGRFTISRDNAKYTVYLQMNSLKPDDTADYYFNADWGPTYEIYDSWGQGTQVTVSS  low polyreactivity

---

- assay: yeast display, Sf9 membrane polyspecificity reagent, FACS + sequencing; frameworks hold sequencing errors
assay_metric: polyreactivity (PSR sort gate)

seq_text	assay_metric	result
QVQLVESGGGLVQAGGSLRLSCAASGSIFPANAMGWYRQAPGKERELVAGISERGSSTYYADSVKGRFTISRDNAKNTDYLQMNSLKPEDTAVYYCAADDVGRYWSYTHNWARGDYWGQGTQVTVSS	polyreactivity (PSR sort gate)	low polyreactivity
QVQLVESGGGLVQAGGSLRLSCAASGSIFDYNTMGWYRQAPGKVRELVAVISGTGGSTYYADSVKGRFTISRVNAKNTVYVQLNSMKPEDTAVYYCAAEGYYSNYHYWGQGTQVTVSS	polyreactivity (PSR sort gate)	low polyreactivity
QVQLVESGGGLVQAGGSLRLSCAASGRTFYRNAMGWYRPAPGKERELVAAITSSGASTYYADSVKGRFTISRDNAKNTVYLQMKSLKPEDTAVYYCAAKYVFSVGNYRYDYWGQGTQVTGSS	polyreactivity (PSR sort gate)	low polyreactivity
QVQLVETGGGLVQAGGSLRLSCAASGFTFSFYTMGWYRQAPGKERELVAAISRRGGSTYYADSVKGRFTISRDNAKNTVYLQMNSLKPEDTAVYYCPTDHIPSVGDDYWGQGTQVTVSS	polyreactivity (PSR sort gate)	high polyreactivity
QVQLVESGGGLVQAGGSLRLSCAASGSTFVDYYMGWYRQATGKERELVAAITYSGARTYYADSVKGRFTISRDNAKNTVYLQMNSLKPEDTAVYYCNADQSTASDQLEFDYWGQGTQVTVSS	polyreactivity (PSR sort gate)	low polyreactivity
QVQLQESGGGLVQAVGSLRLSCAASGNISDYYDMGWYRQAPGKERKIVAGIDFGAITNYADSVKGRFTISRDNAKNTEYLQMSSLKPEDTAVYYCAAGVYDWYAYDYWGQGTQVTVSS	polyreactivity (PSR sort gate)	high polyreactivity
QVQLVESGGGLVQAGGSLRLSCAASGYTFSHYAMGWYRQAPGKERELVAGITWSGGSTYYADSVKGRFTISRENSKNTVYLQMNSLKPEDTSVYYCAAKYYWYYSYSGIPLFDYWGQGTQVTVSS	polyreactivity (PSR sort gate)	low polyreactivity
QVQLVESGGGLVQAGGSLRLSCAASGRIFSEYAMGWYRQAPGKERELVAAISRRGGRTYYADSVKGRFTISRDNAKNTVYLQMNSLKPEETAVYYCAAKIIWFTIRHGSAGFKYWGQGTQVTVSS	polyreactivity (PSR sort gate)	high polyreactivity
QVQLVESGGGLVQAGGSLRLSCAASGRTFYWNAMGWYRQAPGKERELVAAISDGGGSTYYADSVKGRFTISRDNAKNTVYLHMNSLKPEDTAVYYCNTPDNQDKPYPGYDYWGQGTQVTVSS	polyreactivity (PSR sort gate)	low polyreactivity
QVQLVESGGGLVQAGGSLRLSCDASGSIFRAYAMRWYRQAPGKERELVAAISSSSGRTYYADSVKGRFTISRDNAKTTVYLQLNSLKPEDTAVYYCAVTASTLVTSATYDYWGQGTQVTLSS	polyreactivity (PSR sort gate)	low polyreactivity
QVQLVESGGGLVQAGGSLRLSCAASGRIFTRYTMGWYRQAPGKDRELVAAITRGGSTYYADSVKGRFTISRDNANNTVYLQMNSLKPEDTAVYYCATQVWGGRYNYWGQGTQVTVTS	polyreactivity (PSR sort gate)	high polyreactivity

---

- assay: yeast display, Sf9 membrane polyspecificity reagent, FACS + sequencing; frameworks hold sequencing errors
assay_metric: polyreactivity (PSR sort gate)

seq_text	result
QVQLVESGGGLVQAGGSLRLSCAPSGFIFGHNTMGWYRQAPGKECELVARITSSGGRTYYADSVKGRFTISRDNAKNTVYLQMNSLKPLDSAVYYCAAVSPNTAYDYWGQGTQVTVSS	high polyreactivity
QVQVLESGGGLVQAGGSLRLSCAASGRTFYWNAMGWYRQAPGKERELDAVISQSGGSTYYADSVKGRFTISRDNAKNTVYLQMNSLQPEDTAVYYCNKATRHHFYYWGQGTQVTVSS	high polyreactivity

---

- assay: yeast display, Sf9 membrane polyspecificity reagent, FACS + sequencing; frameworks hold sequencing errors
assay_metric: polyreactivity (PSR sort gate)

seq_text	result
QVKLVESGGGLVQAGGSLRLSCAASGRIFRFNPMGCYRQAPGKERELVAASNWRGGTTYADSVKGRFTISRDNAKNTVYLQMNSLKPEDTAVYYCNAGYGVTKWPYEERYDYWGQGTQVTLSS	high polyreactivity
QVQLVESGGGLVQAGGSLRLSCAATGFTFRWYAMGWYRQAPGKERELVAAITSDDNTYYADSVKGRFTISRDNAKNTVYLQMNSLKPEDTAVYYCAAEYADYWTYIMGYWGQGTQVTVSS	low polyreactivity
QVQLVESGGGLVQAGGSLRLSCAASGRIFVPYAMGWYRQAPGKERELVAGITSGSRTNYADSVKGRFTISRDNAKYTVYLQMNSLKPEDTEVYYCNALDFRYYGIFDYWGQGTQVTVSS	high polyreactivity
QVQLVESRGGLVQAGGSLGLSCAASGPTFFYNAMGWYRQAPGKERELVAAISSGGGSTYYADSVKGRFTISRDNAKNTVYLQMNSLKPEDTAVYYCAGASYRQPGYGYWGQGTLVTVSS	high polyreactivity
QVQLVESGGGLVQAGGSLRLSCAASGGIFIDYTMGWYRQAPGKERELVAAITRGGSTYYADSVKGRFTISRDNAKNTVYLQMNSLKPEDTAVYYCAARANTPVGHNRFGYWGQGTQVTVSS	low polyreactivity
QVQLVESGGGLVQAGGSLRLSCAASGRTFYGNAMGWYRQAPGKERELVAAITSGGGSTRYADSVKGRFTISRDNANNTVYLQMNSLKPEHTAVYYCAAYRQGTAYDYWGQGTQVTVSS	high polyreactivity
QVQLVESGGGLVQAGGSLRLSCAASGRIFLINAMGWSRQAPGKERELDATISRSGASTDYADSVKGRFTISRDNAKNTVYLQMNSLKPEDTAVYYCNAKVYKRRVVPYDYWGQGTQVTVSS	high polyreactivity
QVQLVESGGGLVQAGGSLRLSCAASGFIFTIYAMGWYRQAPRKERELVAAITWNGGRTYYADSVKGRFTISRDNAKNTVYLQMISLKPEDTAVYYCAARYGRAYDYWGQGTQVTVSS	high polyreactivity
QVQLVESGGGLVQAGGSLRLSCASSGIIFVYYAMGWYRQAPGKERELVAVITESGVSTYYADSVKGRFTISRDNAKNTVYLQMNSLKPEDTAVYYCNRDYPYIWHKGARYWHENDYWGQGTQVTVSS	low polyreactivity
QVQLVESGGGLVQAGGSLRLSCAASGRIFWYNGKGWYRQAPGKERELVAAISYSGGSTNYADSVKGRFTISRDNAKNTVYLQMNSLKPEATAVYYCAAPVPTYHTAWRFFRPDYGYWGQGTQVTVSS	high polyreactivity
QVQLVESGGGLVQAGGSLRLSCAASGSTFAQNAMGWYRQEPGKERELVAAISRRGGSTYYADSVKGRFTISRDNAKNTVYLQMISLKPEDTAVYYCAADQPVRQLHRDDYWGQGTQVTVSS	low polyreactivity

---

- assay: yeast display, Sf9 membrane polyspecificity reagent, FACS + sequencing; frameworks hold sequencing errors
assay_metric: polyreactivity (PSR sort gate)

seq_text	result
QVQLVESGGGLVQAGGSLRLSCAASGSIFFSNAMGWYRQAPGKERELVASISRDVSTNYADSVKGRFTISRDNAKNTVYLQMTSLKPEDTAVYYCAKRYYRYYYITYNGSHYGYWGQGTQVTVSS	low polyreactivity
QVQLVESGGGLVQAGGSLRLSCAASGRTLRPYAMGWYRQAPGKEREFVAAIRWSGGSTYYADSVKGRFTISRDNAKNTVYLQMNSLKPEDTAVYYCAASFLTYYLSLYDYWGQGTQVTVSS	high polyreactivity
QVQLVESGGGLVQAGGSLRLSCAASGSIFSPYDMGWYRQAPGKERELVASITWRRGNTYYADSVKGRFTISRDNAKNTVYLQMNSLKPEDTAVYYCAATRGAQTPQTRKKRGFDYWGQGTQVTVSS	low polyreactivity
QVQLVESGGGLVQAGGSLRLSCAASGSIFFTYAMGWYRQAPGKERELVAAISGVVSTYYADSVKGRFTISRDNAKNTVYLQMNSLKPEDTAVYYCAADYSWTGFGWEYDYWGQGTQVNVSS	low polyreactivity
QVQLVESGAGLVQAGGSLRLSCAASGSTFEVYAMGWYRQAPGKVMELVADISHIGGSTYSADSVMGRFTISRDNAKNTVYLQLNSLKPEDTAVYYCNAYTVYAYDYWGQGTQVTVSS	low polyreactivity
QVQLVESGGGLVQAGGSLRLSCAASGRIFTRYAMGWYCQAPGNDRELVAVIRDGSTYYADSVKGRFTISRDNGKNTVYLQMNSLKPEDTAVYYCRYDIWDWWSGAYDYWGQGTQVTVSS	low polyreactivity
QVQLVESGGGLVQAGGSLRLSCAASGSIFASNAMGWYRQAPGKEREFVAAIRYSAGITYYADSVKGRFTISRDNAKNTVYLQMNSLKPEDTAVYFCSAYGWVNRWYSRFDYWGQGTQVTVSS	high polyreactivity
QVQVVESGGGLVQPGGSLRLSCAASGSTFGGKAMGWYRQATGKERELVAGITSSGTSTYYADSVKGRFTISRDNAKNTVFLQMNSLKPEDTAVYYCATDEAVESYGFELFDYWGQGTQVTVSS	low polyreactivity
QVQLEESGGGLVQAGGSLRLSCAASGRIFDDNAMGWYRPAPGKERELVAAISSSGGSTYYADSVKGRFTISRDNAKNTVYLQMNSLKPEDTAVYYCNAGRYIRAFWYAHGYDYWGQGTQVTVSS	high polyreactivity
QVQLVESGGGLVQAGGSLRLSCAASGLIFVYYTMGWYRQAPGKERELVARISQSGGTTYYADSVKRRFTISRDNAKNTVYLQLNSLKREDTAVYYCAAVYQLYYSGGRYYYWGQGSQVTVSS	high polyreactivity
QVQLVESGGGLVQAGGSLRLSCAASGSTLGINAMGWYRQAPGKERELVAAITWNGGSTYYADSVKGRFTISRDNAKNTVYLQMNSLKPEDTAVYYCAARTYSSRYYRTREGFDYYYWGQGTQVTVSS	high polyreactivity
